Each entry below carries its recorded melting point.

molecule: CCOC(=O)c1cc(NC(=O)c2ccc(Cl)cc2Cl)ccc1Oc1cncc(Cl)c1
endpoint.value: 125 to 127 °C
//
molecule: CCC(Nc1ncnc2[nH]cnc12)c1oc2cccc(F)c2c(=O)c1-c1ccccc1 (stereo not drawn)
endpoint.value: 210 to 212 °C

We now examine a further molecule.
Query: melting point; subject: "CCOC(=O)C(=CNc1ccc(F)c(N2CCN(C(=O)OCC)CC2)n1)C(=O)OCC"
144 to 145 °C

###

Each entry below carries its recorded melting point.

compound: O=C(O)c1cnn(OCCCC2OCCO2)c1
melting point: 85 °C
--
compound: CC(C)(C)OC(=O)Oc1ccc(C(=O)c2ccc(OC(=O)OC(C)(C)C)cc2)cc1
melting point: 141 to 143 °C
--
compound: O=C1NCN(c2ccc(F)cc2)C12CCN(CCCn1c(=O)[nH]c3ccccc31)CC2
melting point: 215 °C
--
compound: CCCCCC(O)CCC1CCC(=O)C1CCCCC=CC(=O)O (stereo not drawn)
melting point: 71 to 75 °C
--
compound: CCCCCc1sc(C(=O)OCC)nc1-c1ccccc1
melting point: 51 to 52 °C
--
compound: c1csc(-c2nc(COc3ccc(CCCCn4ccnc4)cc3)co2)c1
melting point: 106 to 107 °C

We now examine a further compound.
Query: melting point; subject: "NCCc1ccc(-c2csc(N=C(N)N)n2)o1"
156 to 158 °C

###

quantity: melting point

// below: answered compounds
compound: Cc1cc(C#N)cc(C)c1OCCCc1ccc(CO)o1
endpoint.value: 37 to 38 °C

compound: CCCCCCCCCCCCCCCCSCC(CNS(=O)(=O)CCCCl)NC(=O)OC (centres undefined)
endpoint.value: 67 to 69 °C

compound: O=C(O)COc1cccc2c1CCc1sc(NCCC(c3ccccc3)c3ccccc3)nc1-2
endpoint.value: 240 to 243 °C

compound: Cc1oc(-c2ccccc2)nc1COc1ccc2cc(CCc3nnn[nH]3)oc2c1
endpoint.value: 177 to 178 °C

Query: melting point; subject: "O=C1CCCc2sc(-c3ccncc3)cc21"
156 to 158 °C

Note, next up: "COc1ccc2c(n1)C(=O)c1nccc3c1c-2nc1ccccc13"
> 260 °C

Note, next up: "COc1ccc(C(=O)Nc2c(Cl)cncc2Cl)c2c1OCCCCO2"
115 to 117 °C

Note, next up: Cc1cc(NC(=O)C(C)(O)COc2ccccc2F)ccc1[N+](=O)[O-] (centres undefined)
94 to 96 °C

Note, next up: "CCN(CC)C(=O)c1ccccc1-c1ccc(F)cc1"
57 to 59 °C

Note, next up: "O=C(O)c1cccc(NC(=O)[C@H](CO)NS(=O)(=O)c2ccc(Cl)cc2)c1"
220 to 224 °C

Note, next up: "Cc1cccc(CC(=O)O)c1OCCCc1cn(-c2ccc(C(F)(F)F)cn2)nc1C1CCCCC1"
184 to 185 °C

Note, next up: "Nc1ccccc1C(=O)N1CCCc2ccccc21"
102 °C

Note, next up: "CC1(C)NC(=O)N(c2ccc([N+](=O)[O-])cc2)C1=O"
176 to 177 °C

Note, next up: "O=C(O)C(CBr)(CBr)COCC(CBr)(CBr)C(=O)O"
189 to 193 °C

###

Each entry below carries its recorded melting point.

// below: answered molecules
molecule: CCOC(=O)c1cc(C)nc(NN=C(C)C)c1
melting point: 79 to 82 °C

molecule: COc1ccc(OC)c([Si](C)(C)COc2cc(C(C)(C)C)c(O)c(C(C)(C)C)c2)c1
melting point: 103 °C

molecule: O=c1c(Br)c(O)c2cccnc2n1-c1ccccc1
melting point: > 280 °C

We now examine a further molecule.
Query: melting point; subject: COc1ccc(N2C(=O)c3ccc(Cl)cc3C2CC(=O)N2CCC3(CC2)OCCO3)cc1 (centres undefined)
156 to 157 °C

###

Each entry below carries its recorded melting point.

Query: melting point; subject: "Nc1ccc(Sc2nnc3ccc(-c4ccc(F)cc4)cn23)cc1"
217 °C

Note, next up: COC(=O)Cc1ccc(OCC2CN(c3ccc(C#N)cc3)C(=O)O2)cc1 (configuration not stated)
114 to 115 °C

###

Each entry below carries its recorded melting point.

molecule: O=C(NN1CCN(C(=O)C=Cc2ccccc2)CC1)c1ccc(F)cc1
melting point: 235 to 240 °C

Query: melting point; subject: CN(C)c1ccc(C(O)C#Cc2ccncc2)cc1 (configuration not stated)
117 °C

Note, next up: "COc1cc(-n2nc3ccc(Cl)cn3c2=O)c(F)cc1N"
138 to 140 °C

Note, next up: "COc1cccc(CNc2nc(Cl)nc3c2nc(Br)n3C(C)C)c1"
123 to 125 °C

Note, next up: "C=Cn1cc(C(=O)O)c(=O)c2cnc(N3CCN(C)CC3)nc21"
233 to 234 °C

Note, next up: "CC(=O)Oc1ccc2c(=O)c(C#N)c(C)oc2c1"
140 to 141 °C

Note, next up: "CC(C)(C)OC(=O)NCCS(=O)(=O)Nc1ccc2c(c1)C(=O)Nc1cccnc1N2"
195 to 198 °C

Note, next up: "Cc1nc2cc(C34CC5CC(CC(C5)C3)C4)cc(-c3cccc(C=C4SC(=S)NC4=O)c3)c2o1"
310 °C

Note, next up: "OCCN1CCN(c2nn(-c3ccc(C(F)(F)F)cc3)c3ccccc23)CC1"
82 to 84 °C

Note, next up: "COc1ccc(C(=O)c2cccc(OCc3nc(-c4ccccc4)oc3C)c2)c(OCC(=O)O)c1"
198 to 199 °C

Note, next up: O=C(CBr)N[C@H](Cc1ccc(C(F)(F)F)cc1)[C@@H](O)c1ccc(F)cc1 (racemic)
151 to 152 °C

Note, next up: NC(=O)NC1CCCc2sc(Br)cc21 (configuration not stated)
206 to 210 °C

###

quantity: melting point

// below: answered compounds
compound: Oc1ccc(-c2cnc(NC(=S)Cc3ccccc3)c(Cc3ccccc3)n2)cc1
melting point: 195 to 198 °C

compound: C=CCNC(=O)N1CCc2cc(S(=O)(=O)N3CC(c4ccccc4)NC3=O)ccc21 (centres undefined)
melting point: 217 to 219 °C

compound: O=C(O)CCCCCCNC(=O)C(CS)Cc1ccccc1 (centres undefined)
melting point: 71 to 73 °C

compound: Fc1ccc(Nc2ncnc3cnc(NCC45CCN(CC4)CC5)nc23)cc1Cl
melting point: 221 to 223 °C

Query: melting point; subject: "O=[N+]([O-])c1ccc(Cl)c(N=Cc2ccccc2O)c1"
168 to 169 °C

Note, next up: "O=C(NCc1ccc(Cl)cc1)c1cn2c(CCCO)cc3cc(CN4CCOCC4)cc(c1=O)c32"
171 to 174 °C

###

Each entry below carries its recorded melting point.

// below: answered compounds
compound: O=C(O)Cc1ccc(NC(=O)CCc2cnn(-c3ccccc3)c2-c2ccccc2)cc1
endpoint.value: 199 to 201 °C
//
compound: COC(c1ccc(NC(=O)c2c(C(F)(F)F)nn(C)c2C)cc1CC(C)C)(C(F)(F)F)C(F)(F)F
endpoint.value: 138 to 139 °C

Query: melting point; subject: C=CCOc1cc(C=CNC(=O)OC)ccc1OCC(O)CNC(C)C (configuration not stated)
91 to 92 °C

Note, next up: "CC(C)=CCn1ncc(-c2ccc(S(N)(=O)=O)c(F)c2)c(-c2ccc(F)cc2)c1=O"
134 to 136 °C

Note, next up: "O=C(NCCO)c1cc(F)cc(-c2ccc(F)c3cc(Cc4cccc(C(F)(F)F)c4)sc23)c1"
107 to 108 °C

Note, next up: "O=C(Nc1ccc(OCc2ccccn2)nc1)N1CCc2ccc(C(F)(F)F)cc21"
178 to 179 °C

Note, next up: "CS(=O)(=O)N1CCN([C@@H](CNS(=O)(=O)c2ccc(OCc3ccnc4ccccc34)cc2)C(=O)NO)CC1"
180 °C

Note, next up: "c1cnc(N2CCN(Cc3ccc4ccccc4c3)CC2)nc1"
109 to 110 °C

###

Each entry below carries its recorded melting point.

compound: COc1cc2c(cc1OC)CC(NC(=O)C1CCC(=O)N1)CC2 (centres undefined)
melting point: 195 to 196 °C
--
compound: COC(=O)C(=O)c1cn2c3c(cccc13)CCC2
melting point: 105 to 108 °C
--
compound: O=C(CCl)c1ccc(OCCOc2ccc(C(=O)CCl)cc2)cc1
melting point: 165 °C
--
compound: NC(=O)[C@@H]1[C@H](Nc2c(Br)cnc3[nH]c(-c4ccsc4)nc23)[C@H]2C=C[C@@H]1C2
melting point: 238 to 241 °C
--
compound: NC(N)=NC(=O)c1ccc2c(c1)S(=O)(=O)CC2O (centres undefined)
melting point: 240 to 241 °C
--
compound: CC(C)(C)C(=O)Nc1ccncc1-c1n[nH]c2ccccc12
melting point: 232 to 233 °C

Query: melting point; subject: "Cc1ccncc1-c1nc(-c2ccc(Cl)cc2)c(Cl)s1"
146 °C

Note, next up: "CN(C)C=C(C#N)C(=O)Nc1ccc(F)cc1Cl"
138 to 139 °C

Note, next up: "Cc1ccc(-c2c(NS(=O)(=O)c3ccc(C(C)(C)COc4ncc(Br)cn4)cc3)ncnc2OCCOc2ncc(Br)cn2)cc1"
156 to 158 °C

Note, next up: "CCCOc1ccnc2[nH]cc(C(C)=O)c12"
> 210 °C

Note, next up: CCOC(=O)NC(C)CCC1(O)c2ccccc2CCc2c(C)cccc21 (centres undefined)
132 to 134 °C

Note, next up: "COc1cc(OC)c2c(c1)C(=O)c1cc(C)cc(OC)c1C2=O"
225 °C

Note, next up: "CC(C)c1cc(S(=O)(=O)c2c(Br)cc(CC(=O)O)cc2Br)ccc1O"
171 to 172 °C

Sourced from a melting point compilation (Tetko et al.; mined from patent text by program, amines drawn as free bases though some values may be those of a salt)
